Measured values drawn from paper PMC4926070 for this set.

Test: Cytotoxicity against mouse peritoneal macrophages
Format: cell-based
property_name: CC50

In: Report measured CC50; entry is "CC1=C2CC/C(C)=C/CC[C@@]3(C)O[C@@H]3CC/C(C)=C/[C@H]2OC1=O"
Out: > 60 µM
